# procedure_text: Neuronal stress and viability assay, rescue of Aβ(1-42) toxicity (Alamar Blue)
# Type: cell-based, human
# study_conditions: human, A152T neurons differentiated from NPCs for 8 weeks, 5μM compound alone, replicates I-VI; read-out: % Viability (Relative to Vehicle)
result_type: viability at 24 h, 5 µM (%)
# number only, unit % dropped from output

// field: viability at 24 h, 5 µM; key: O=C(CCc1ccc2c(c1)[nH]c1ccncc12)NCCOCCOCCNc1cccc2c1C(=O)N(C1CCCNC1=O)C2=O (stereo not shown) ; value = 104

----------
# system_tested: recombinant human tau Tau-441(A152T) (Homo sapiens, UniProt P10636, A469T)
# Construct: biotin (chemical label, NHS-PEG4); purchased SignalChem T08-56VN; host or cells: E. coli
# Sequence (P10636 1-441 isoform P10636-8 A152T): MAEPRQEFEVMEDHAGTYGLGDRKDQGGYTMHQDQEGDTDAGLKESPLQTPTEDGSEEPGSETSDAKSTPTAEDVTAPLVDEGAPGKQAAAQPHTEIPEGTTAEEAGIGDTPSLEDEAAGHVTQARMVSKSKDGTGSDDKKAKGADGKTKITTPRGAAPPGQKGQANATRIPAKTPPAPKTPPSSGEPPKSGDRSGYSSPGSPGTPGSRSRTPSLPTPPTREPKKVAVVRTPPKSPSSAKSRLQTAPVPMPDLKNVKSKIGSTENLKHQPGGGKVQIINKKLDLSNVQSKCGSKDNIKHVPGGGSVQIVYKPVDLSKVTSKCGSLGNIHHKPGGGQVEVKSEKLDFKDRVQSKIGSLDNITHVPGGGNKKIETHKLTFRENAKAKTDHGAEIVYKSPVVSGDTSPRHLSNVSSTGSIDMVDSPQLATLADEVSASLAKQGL
# procedure_text: Bio-layer interferometry (BLI) biosensor assay, tau A152T
# Assay type: binding
# study_conditions: BLI; Figure 1E, mean (n ≥ 3); read-out: KD (μM), Tau A152T, bars mean KD
# Method: BLI was performed in the Octet Red384 instrument (ForteBio, Fremont CA, USA) with 1X PBS and 0.01% Brij-35 as the assay buffer. […] The biotinylated protein samples for BLI were purified in 1X phosphate buffered saline (PBS). Streptavidin (SA) sensors were used to measure the biophysical interaction between the small molecules and biotinylated tau. […] When Req option is selected, Fortebio’s software calculates affinity constants based on the Req values determined from the curve fits. […]
result_type: Kd (µM)
Give the value, in units of µM, as a plain number.

So, O=C(CCc1ccc2c(c1)[nH]c1ccncc12)NCCOCCOCCNc1cccc2c1C(=O)N(C1CCC(=O)NC1=O)C2=O (stereo not shown) ? Its Kd was 1.66
